// provenance: paper PMC11243256

SYSTEM: PYR1 (Arabidopsis thaliana)
Construct: NT-647-NHS labelled; 'dimer PYR1' in the docking section
Sequence (O49686 whole entry): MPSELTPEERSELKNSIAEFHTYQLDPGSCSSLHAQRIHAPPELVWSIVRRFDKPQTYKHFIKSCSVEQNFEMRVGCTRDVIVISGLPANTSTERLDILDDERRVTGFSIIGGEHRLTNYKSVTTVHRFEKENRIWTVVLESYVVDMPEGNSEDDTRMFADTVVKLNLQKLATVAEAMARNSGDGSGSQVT
ASSAY_METHOD_TEXT: microscale thermophoresis
Assay type: binding
OBSERVATION_TYPE: Kd

For orientation, consider the following solved cases.
{"COMPOUND": "CC1=CC(=O)CC(C)(C)[C@@]1(O)/C=C/C(C)=C\\C(=O)O", "Kd": "188 µM"}
{"COMPOUND": "CCOCCOc1ccc2c(c1)C(=O)C(C)(C)CC2(O)/C=C/C(C)=C\\C(=O)O (centres unmarked)", "Kd": "42.2 µM"}
{"COMPOUND": "CC(=C/C(=O)O)/C=C/C1(O)CC(C)(C)C(=O)c2cc(OCCC(C)CCCC(C)C)ccc21 (centres unmarked)", "Kd": "37.9 µM"}

For each of the compounds below, note its Kd.
1. CC(C)=CCCC(C)CCOc1ccc2c(c1)C(=O)C(C)(C)CC2(O)/C=C/C(C)=C\C(=O)O (centres unmarked)
2. COCCOCCOc1ccc2c(c1)C(=O)C(C)(C)CC2(O)/C=C/C(C)=C\C(=O)O (centres unmarked)
3. CCCCCCOc1ccc2c(c1)C(=O)C(C)(C)CC2(O)/C=C/C(C)=C\C(=O)O (centres unmarked)
4. CC(=C/C(=O)O)/C=C/C1(O)CC(C)(C)C(=O)c2cc(OCCC(C)CC(C)(C)C)ccc21 (centres unmarked)
5. CC(=C/C(=O)O)/C=C/C1(O)CC(C)(C)C(=O)c2cc(OCCCCc3ccccc3)ccc21 (centres unmarked)

Marked response:
["53.4 µM", "73.9 µM", "121 µM", "60.8 µM", "59.4 µM"]

* * *

Would you kindly list Kd for each of these compounds?
SYSTEM: PYL10 (Arabidopsis thaliana, UniProt Q8H1R0)
Construct: NT-647-NHS labelled; 'monomer PYL10' in the docking section
Sequence (Q8H1R0 whole entry): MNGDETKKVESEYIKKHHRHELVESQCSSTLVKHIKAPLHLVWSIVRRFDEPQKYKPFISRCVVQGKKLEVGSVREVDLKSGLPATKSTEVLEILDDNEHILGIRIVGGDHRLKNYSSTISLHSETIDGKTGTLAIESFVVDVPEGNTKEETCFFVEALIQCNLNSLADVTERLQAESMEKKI
ASSAY_METHOD_TEXT: microscale thermophoresis
Format: binding
One number for each entry, in µM.

For orientation, consider the following solved cases.
{"COMPOUND": "CC1=CC(=O)CC(C)(C)[C@@]1(O)/C=C/C(C)=C\\C(=O)O", "SYSTEM": "PYL10 (Arabidopsis thaliana, UniProt Q8H1R0)", "NUMERIC_VALUE": 152}
{"COMPOUND": "CCCCCCOc1ccc2c(c1)C(=O)C(C)(C)CC2(O)/C=C/C(C)=C\\C(=O)O (centres unmarked)", "SYSTEM": "PYL10 (Arabidopsis thaliana, UniProt Q8H1R0)", "NUMERIC_VALUE": 44.9}

For each of the compounds below, note its Kd.
1. CC(=C/C(=O)O)/C=C/C1(O)CC(C)(C)C(=O)c2cc(OCCCCc3ccccc3)ccc21 (centres unmarked)
2. COCCOCCOc1ccc2c(c1)C(=O)C(C)(C)CC2(O)/C=C/C(C)=C\C(=O)O (centres unmarked)

Marked response:
1: 17.6; 2: 37.5

* * *

Would you kindly list log10 of Kd for each of these compounds?
SYSTEM: PYL2 (Arabidopsis thaliana, UniProt O80992)
Construct: NT-647-NHS labelled
Sequence (O80992 whole entry): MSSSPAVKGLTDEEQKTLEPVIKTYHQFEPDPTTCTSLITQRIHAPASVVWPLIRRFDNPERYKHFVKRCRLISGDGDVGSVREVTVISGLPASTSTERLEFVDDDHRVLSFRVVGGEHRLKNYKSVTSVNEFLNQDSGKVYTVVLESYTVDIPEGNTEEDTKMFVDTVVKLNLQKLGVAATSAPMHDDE
ASSAY_METHOD_TEXT: microscale thermophoresis
Format: binding
Please be aware that the numbers have been log10-transformed from Kd in nM.

For orientation, consider the following solved cases.
{"COMPOUND": "CC(=C/C(=O)O)/C=C/C1(O)CC(C)(C)C(=O)c2cc(OCCCCc3ccccc3)ccc21 (centres unmarked) [APA11]", "SYSTEM": "PYL2 (Arabidopsis thaliana, UniProt O80992)", "log10 of Kd": 2.66}
{"COMPOUND": "CC(=C/C(=O)O)/C=C/C1(O)CC(C)(C)C(=O)c2cc(OCCC(C)CC(C)(C)C)ccc21 (centres unmarked) [APA14]", "SYSTEM": "PYL2 (Arabidopsis thaliana, UniProt O80992)", "log10 of Kd": 2.04}
{"COMPOUND": "CC1=CC(=O)CC(C)(C)[C@@]1(O)/C=C/C(C)=C\\C(=O)O [compound 1, ABA]", "SYSTEM": "PYL2 (Arabidopsis thaliana, UniProt O80992)", "log10 of Kd": 4.21}
{"COMPOUND": "CC(=C/C(=O)O)/C=C/C1(O)CC(C)(C)C(=O)c2cc(OCCC(C)CCCC(C)C)ccc21 (centres unmarked) [APA15]", "SYSTEM": "PYL2 (Arabidopsis thaliana, UniProt O80992)", "log10 of Kd": 3.31}
{"COMPOUND": "CCCCCCOc1ccc2c(c1)C(=O)C(C)(C)CC2(O)/C=C/C(C)=C\\C(=O)O (centres unmarked) [APA6]", "SYSTEM": "PYL2 (Arabidopsis thaliana, UniProt O80992)", "log10 of Kd": 3.46}

For each of the compounds below, note its log10 of Kd.
1. CC(C)=CCCC(C)CCOc1ccc2c(c1)C(=O)C(C)(C)CC2(O)/C=C/C(C)=C\C(=O)O (centres unmarked) [APA16]
2. CCOCCOc1ccc2c(c1)C(=O)C(C)(C)CC2(O)/C=C/C(C)=C\C(=O)O (centres unmarked) [APA17]

Marked response:
[3.77, 3.85]

Exam item: Fill blank: measured log10 of Kd of the compound COCCOCCOc1ccc2c(c1)C(=O)C(C)(C)CC2(O)/C=C/C(C)=C\C(=O)O (centres unmarked) [APA18] is ____.
Marked response: 2.15

* * *

Would you kindly list Kd for each of these compounds?
SYSTEM: PYL3 (Arabidopsis thaliana, UniProt Q9SSM7)
Construct: NT-647-NHS labelled
Sequence (Q9SSM7 whole entry): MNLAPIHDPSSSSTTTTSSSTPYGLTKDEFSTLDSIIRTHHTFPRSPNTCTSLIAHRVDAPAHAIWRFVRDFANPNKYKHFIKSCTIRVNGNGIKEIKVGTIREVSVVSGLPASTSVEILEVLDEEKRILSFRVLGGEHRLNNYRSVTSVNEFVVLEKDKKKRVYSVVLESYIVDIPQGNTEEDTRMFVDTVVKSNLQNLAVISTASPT
ASSAY_METHOD_TEXT: microscale thermophoresis
Format: binding
Give bare numbers, in µM.

For orientation, consider the following solved cases.
{"COMPOUND": "CCCCCCOc1ccc2c(c1)C(=O)C(C)(C)CC2(O)/C=C/C(C)=C\\C(=O)O (stereo not shown)", "Kd / µM": 4.09}
{"COMPOUND": "CC(C)=CCCC(C)CCOc1ccc2c(c1)C(=O)C(C)(C)CC2(O)/C=C/C(C)=C\\C(=O)O (stereo not shown)", "Kd / µM": 7.84}

For each of the compounds below, note its Kd.
1. CC(=C/C(=O)O)/C=C/C1(O)CC(C)(C)C(=O)c2cc(OCCC(C)CCCC(C)C)ccc21 (stereo not shown)
2. CC(=C/C(=O)O)/C=C/C1(O)CC(C)(C)C(=O)c2cc(OCCC(C)CC(C)(C)C)ccc21 (stereo not shown)

Marked response:
7.95
5.18

For each of the compounds below, note its Kd.
1. CCOCCOc1ccc2c(c1)C(=O)C(C)(C)CC2(O)/C=C/C(C)=C\C(=O)O (stereo not shown)
2. COCCOCCOc1ccc2c(c1)C(=O)C(C)(C)CC2(O)/C=C/C(C)=C\C(=O)O (stereo not shown)

Marked response:
[19, 9.33]

Exam item: Fill blank: measured Kd of the compound CC(=C/C(=O)O)/C=C/C1(O)CC(C)(C)C(=O)c2cc(OCCCCc3ccccc3)ccc21 (stereo not shown) is ____.
Marked response: 3.11

* * *

SYSTEM: PYL6 (Arabidopsis thaliana, UniProt Q8S8E3)
Construct: NT-647-NHS labelled
Sequence (Q8S8E3 1-215): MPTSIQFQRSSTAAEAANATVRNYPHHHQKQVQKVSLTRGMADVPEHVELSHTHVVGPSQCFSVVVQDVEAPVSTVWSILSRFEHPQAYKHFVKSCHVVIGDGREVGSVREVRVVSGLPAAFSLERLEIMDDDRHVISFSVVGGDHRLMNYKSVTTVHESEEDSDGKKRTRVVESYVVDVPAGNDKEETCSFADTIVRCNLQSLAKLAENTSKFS
ASSAY_METHOD_TEXT: microscale thermophoresis
Type: binding
The label 1.0 is reserved for Kd strictly under 3000 nM; 0.0 covers values equal to or above it.

{"COMPOUND": "CCCCCCOc1ccc2c(c1)C(=O)C(C)(C)CC2(O)/C=C/C(C)=C\\C(=O)O (centres unmarked)", "ASSIGNED_CATEGORY": 1.0}
{"COMPOUND": "CC(=C/C(=O)O)/C=C/C1(O)CC(C)(C)C(=O)c2cc(OCCC(C)CC(C)(C)C)ccc21 (centres unmarked)", "ASSIGNED_CATEGORY": 1.0}
{"COMPOUND": "CC(=C/C(=O)O)/C=C/C1(O)CC(C)(C)C(=O)c2cc(OCCC(C)CCCC(C)C)ccc21 (centres unmarked)", "ASSIGNED_CATEGORY": 1.0}

Exam item: Does this compound meet the criterion Kd < 3000 nM? CC(C)=CCCC(C)CCOc1ccc2c(c1)C(=O)C(C)(C)CC2(O)/C=C/C(C)=C\C(=O)O (centres unmarked)
Marked response: 1.0

* * *

SYSTEM: PYL10 (Arabidopsis thaliana)
Construct: NT-647-NHS labelled; 'monomer PYL10' in the docking section
ASSAY_METHOD_TEXT: microscale thermophoresis
Assay type: binding
From the text: microscale thermophoresis on PYL10
Would you kindly list Kd for each of these compounds?
Give bare numbers, in µM.

For orientation, consider the following solved cases.
{"COMPOUND": "CC(C)=CCCC(C)CCOc1ccc2c(c1)C(=O)C(C)(C)CC2(O)/C=C/C(C)=C\\C(=O)O (stereo not shown)", "SYSTEM": "PYL10 (Arabidopsis thaliana)", "Kd (µM)": 65}
{"COMPOUND": "CC(=C/C(=O)O)/C=C/C1(O)CC(C)(C)C(=O)c2cc(OCCC(C)CC(C)(C)C)ccc21 (stereo not shown)", "SYSTEM": "PYL10 (Arabidopsis thaliana)", "Kd (µM)": 45.5}

For each of the compounds below, note its Kd.
1. CC(=C/C(=O)O)/C=C/C1(O)CC(C)(C)C(=O)c2cc(OCCC(C)CCCC(C)C)ccc21 (stereo not shown)
2. CCOCCOc1ccc2c(c1)C(=O)C(C)(C)CC2(O)/C=C/C(C)=C\C(=O)O (stereo not shown)

Marked response:
1: 36.3; 2: 23.9
